Kindly supply the reported pEC50 values for the records listed here.
Molecular target: KOR (Homo sapiens, UniProt P41145)
Sequence (P41145 whole entry): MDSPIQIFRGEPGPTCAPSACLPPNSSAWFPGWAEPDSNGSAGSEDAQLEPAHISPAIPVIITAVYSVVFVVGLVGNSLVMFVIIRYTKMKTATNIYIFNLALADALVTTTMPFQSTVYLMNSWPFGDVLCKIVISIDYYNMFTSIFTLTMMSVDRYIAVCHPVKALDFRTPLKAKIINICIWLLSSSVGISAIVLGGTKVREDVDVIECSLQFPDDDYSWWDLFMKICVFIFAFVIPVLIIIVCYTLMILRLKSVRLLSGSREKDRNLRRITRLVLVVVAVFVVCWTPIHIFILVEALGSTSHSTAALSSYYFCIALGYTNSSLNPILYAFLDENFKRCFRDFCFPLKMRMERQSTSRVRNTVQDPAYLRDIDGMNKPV
Test: KOR-mediated β-arrestin2 recruitment, DiscoveRx PathHunter assay, U2OS-hMOR-β-arrestin2 cells
Type: cell-based
As a rule, pEC50 stands for the negative log10 of the concentration, concentration in M.

Which value of pEC50 has been reported for Oc1cccc(CCN(CCc2ccccc2)CC2CCCCC2)c1F [Compound 51] in the records?
5.38

And the next one, Oc1cccc(CCN(CCc2ccccc2)CC2CCC2)c1F [Compound 49] ?
6.07

And the next one, Oc1cccc(CCN(CCc2ccccc2)CC2CCCC2)c1 [Compound 2] ?
5.87

And the next one, Oc1cccc(CCN(CCc2cccc(O)c2F)CC2CCC2)c1 [Compound 53] ?
6.28

And the next one, Oc1cccc(CCN(CCc2ccccc2)CC2CCCCC2)c1 [Compound 3] ?
5.87

And the next one, Cl.Oc1cccc(CCN(CCc2ccccc2)CC2CC2)c1 [HS666, Hydrochloride, reference compound] ?
6.30

###

Target: KOR (Homo sapiens, UniProt P41145)
Assay: KOR-mediated β-arrestin2 recruitment, DiscoveRx PathHunter assay, U2OS-hMOR-β-arrestin2 cells
Assay type: cell-based
Conditions: DiscoveRx PathHunter assay, U2OS-hMOR cells; read-out: β-arrestin2 recruitment assay EC50
metric: EC50 (µM)
Give the value, in units of µM, as a plain number.

Which value of EC50 has been reported for Oc1cccc(CCN(CCc2ccccc2)Cc2ccccc2)c1 in the records?
4.45

###

Biological target: KOR (Homo sapiens, UniProt P41145)
Assay: biochemical
Assay type: binding
Parameters: expressed in transfected cells; host or cells: CHO cells (membranes)
Conditions: read-out: Affinity Ki KOR
Kindly supply the reported Ki values for the records listed here.
Give the value, in units of nM, as a plain number.

Under KOR (Homo sapiens, UniProt P41145): Ki value of Oc1cccc(CCN(CCc2ccccc2)Cc2ccccc2)c1 ?
0.71

And the next one, Oc1cccc(CCN(CCc2cccc(O)c2F)CC2CCC2)c1 ?
0.12

And the next one, Cl.Oc1cccc(CCN(CCc2ccccc2)CC2CC2)c1 [HS666, Hydrochloride, reference compound] ?
5.9

###

Molecular target: KOR (Homo sapiens)
Assay: KOR-mediated β-arrestin2 recruitment, DiscoveRx PathHunter assay, U2OS-hMOR-β-arrestin2 cells
Type: cell-based
Settings: read-out: β-arrestin2 recruitment assay Emax
Please note: 1 applies when Emax is 40% or greater, and 0 applies otherwise.

Evaluate Cl.Oc1cccc(CCN(CCc2ccccc2)CC2CC2)c1 [HS666, Hydrochloride, reference compound] : Emax at minimum 40%?
0

And the next one, Oc1cccc(CCN(CCc2ccccc2)CC2CCCC2)c1 [Compound 2] ?
1

And the next one, Oc1cccc(CCN(CCc2ccccc2)CC2CCC2)c1F [Compound 49] ?
1

And the next one, Oc1cccc(CCN(CCc2ccccc2)CC2CCCCC2)c1F [Compound 51] ?
1

And the next one, Oc1cccc(CCN(CCc2cccc(O)c2F)CC2CCC2)c1 [Compound 53] ?
1

And the next one, Oc1cccc(CCN(CCc2ccccc2)Cc2ccccc2)c1 [Compound 4] ?
0

And the next one, Oc1cccc(CCN(CCc2ccccc2)CC2CCCCC2)c1 [Compound 3] ?
1

###

Molecular target: KOR (Homo sapiens)
Experiment: biochemical
Type: biochemical
Parameters: expressed in transfected cells; host or cells: CHO cells (membranes)
Conditions: read-out: [35S]GTPγS binding KOR EC50
Kindly supply the reported pEC50 values for the records listed here.
As a rule, pEC50 stands for the negative log10 of the concentration, concentration in M.

Which value of pEC50 has been reported for Oc1cccc(CCN(CCc2ccccc2)Cc2ccccc2)c1 [Compound 4] in the records?
8.33

And the next one, Cl.Oc1cccc(CCN(CCc2ccccc2)CC2CC2)c1 [HS666, Hydrochloride, reference compound] ?
7.46

And the next one, Oc1cccc(CCN(CCc2ccccc2)CC2CCC2)c1F [Compound 49] ?
8.16

And the next one, Oc1cccc(CCN(CCc2cccc(O)c2F)CC2CCC2)c1 [Compound 53] ?
8.83

And the next one, Oc1cccc(CCN(CCc2ccccc2)CC2CCCCC2)c1 [Compound 3] ?
9.64

And the next one, Oc1cccc(CCN(CCc2ccccc2)CC2CCCCC2)c1F [Compound 51] ?
8.56

###

Structures can show the parent of a compound that is named as a salt.
metric: melting point

Which value of melting point has been reported for Oc1cccc(CCN(CCc2cccc(O)c2)CC2CCCCC2)c1 in the records?
157 to 158 °C

And the next one, CC(C)CCN(CCc1cccc(O)c1)CCc1cccc(O)c1 ?
71 to 72 °C

And the next one, Oc1cccc(CCN(CCc2ccccc2)C2CCC2)c1 ?
100 to 101 °C

And the next one, C=CCN(CCc1cccc(O)c1)CCc1cccc(O)c1 ?
104 to 106 °C

And the next one, C=CCN(CCc1ccc(O)cc1)CCc1cccc(O)c1 ?
103 to 105 °C

And the next one, Oc1cccc(CCN(CCc2ccccc2)Cc2ccccc2)c1 ?
177 to 178 °C

And the next one, Oc1cccc(CCN(CCc2cccc(O)c2)CC2CCCC2)c1 ?
113 °C

And the next one, CCCCCCN(CCc1cccc(O)c1)CCc1cccc(O)c1 ?
75 to 76 °C

And the next one, Oc1cccc(CCN(CCc2ccccc2)Cc2ccccc2)c1F ?
126 to 128 °C

And the next one, COc1cccc(CCN(CCc2ccc(O)cc2)CC2CCCC2)c1 ?
74 to 77 °C

And the next one, CCCCN(CCc1cccc(O)c1)CCc1cccc(O)c1 ?
62 to 64 °C

And the next one, Oc1ccc(CCN(CCc2ccccc2)CC2CCCC2)cc1 ?
150 to 153 °C

And the next one, CCCCCN(CCc1cccc(O)c1)CCc1cccc(O)c1 ?
70 to 72 °C

And the next one, Oc1cccc(CCN(CCc2cccc(O)c2)CC2CC2)c1 ?
106 to 107 °C

And the next one, CCCCN(CCc1ccc(O)cc1)CCc1cccc(O)c1 ?
65 to 68 °C

And the next one, Oc1cccc(CCN(CCc2ccccc2)CC2CCCCC2)c1F ?
129 to 130 °C

And the next one, Nc1cccc(CCN(CCc2ccccc2)CC2CCC2)c1 (as salt: hydrochloride) ?
68 to 70 °C

And the next one, Oc1ccc(CCN(CCc2cccc(O)c2)CC2CCCCC2)cc1 ?
155 to 157 °C

And the next one, Oc1ccc(CCN(CCc2cccc(O)c2)CC2CC2)cc1 ?
104 to 105 °C

And the next one, CC(C)CCN(CCc1ccccc1)CCc1cccc(O)c1 ?
149 to 150 °C

And the next one, Oc1cccc(CCN(CCc2ccccc2)CC2CCCC2)c1 ?
154 to 156 °C

And the next one, Oc1cccc(CCN(CCc2ccccc2)CC2CCCCC2)c1 ?
150 to 151 °C

###

Target: UniProt:P41145
Test: biochemical
Format: biochemical
Design: expressed in transfected cells; host or cells: CHO cells (membranes)
metric: pEC50
As a rule, pEC50 stands for the negative log10 of the concentration, concentration in M.

Which value of pEC50 has been reported for Oc1cccc(CCN(CCc2cccc(O)c2)CC2CCC2)c1 in the records?
8.26

And the next one, Oc1cccc(CCN(CCc2ccccc2)CC2CCCC2)c1 ?
8.38

And the next one, Oc1cccc(CCN(CCc2cccc(O)c2)CC2CCCC2)c1 ?
7.85

And the next one, Oc1cccc(CCN(CCc2cccc(O)c2)CC2CCCCC2)c1 ?
7.97

And the next one, COc1cccc(CCN(CCc2ccc(O)cc2)CC2CCCC2)c1 ?
7.64

###

Target: KOR (Homo sapiens)
Assay: biochemical
Type: biochemical
Design: expressed in transfected cells; host or cells: CHO cells (membranes)
Settings: read-out: [35S]GTPγS binding KOR Emax
Each record is given 1 if its reported Emax is strictly below 70%. Records at or above 70% are given 0.

Problem: For the molecule Oc1cccc(CCN(CCc2cccc(O)c2)CC2CCCC2)c1 , is Emax under 70%?
0

And the next one, Oc1cccc(CCN(CCc2ccccc2)CC2CCCCC2)c1F ?
0

And the next one, Oc1cccc(CCN(CCc2ccccc2)CC2CCCCC2)c1 ?
1

And the next one, Oc1cccc(CCN(CCc2ccccc2)Cc2ccccc2)c1 ?
0

And the next one, Cl.Oc1cccc(CCN(CCc2ccccc2)CC2CC2)c1 [HS666, Hydrochloride, reference compound] ?
1

And the next one, Oc1cccc(CCN(CCc2cccc(O)c2)CC2CCCCC2)c1 ?
0

And the next one, COc1cccc(CCN(CCc2ccc(O)cc2)CC2CCCC2)c1 ?
0

And the next one, Oc1cccc(CCN(CCc2ccccc2)CC2CCC2)c1F ?
1

And the next one, Oc1cccc(CCN(CCc2ccccc2)CC2CCCC2)c1 ?
0

And the next one, Oc1cccc(CCN(CCc2cccc(O)c2F)CC2CCC2)c1 ?
1
